B1: PRIM1 (parent)
chain: CCSSADICPKCWTLMTMAIRIIDR

# Variants of: B1
# Test Method Notes: protein stability index of a GFP-peptide fusion (GPS, HEK-293T) (PSI 1-6); higher = more stable;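 note: lentivirally expressed fusions sorted by FACS into six bins by GFP to DsRed ratio, PSI derived from sequencing read proportions per bin multiplied by bin number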
# Test Settings: c terminus: a fixed tail appended
Result Type: protein stability index
No unit in the answer, only the number.

Example entries and their recorded answers appear below.
>>> df
   mutation_key              result_type  result_number
0           S3K  protein stability index           1.45
1           D6N  protein stability index           1.86
2          I22G  protein stability index           2.44
3           C8K  protein stability index           2.95
4           I7Y  protein stability index           1.57
5          R24Y  protein stability index           1.78

Problem: # get_value(readout='protein stability index', item= D6G )
Result: 1.47

Problem: // repeat for A18L and report
Result: 2.3

Problem: // repeat for R20N and report
Result: 2.18

Problem: // repeat for C2L and report
Result: 2.55

Problem: // repeat for T13E and report
Result: 1.88

Problem: // repeat for C1F and report
Result: 1.5

Problem: // repeat for T13A and report
Result: 2.63

Problem: // repeat for C2M and report
Result: 2.48

Problem: // repeat for A5N and report
Result: 1.54

# credit: the supplement of paper PMC10567573
